Give measured IC50 for each item. Keep answers brief.
Target: UniProt:Q9UNU6
Sequence (Q9UNU6 whole entry): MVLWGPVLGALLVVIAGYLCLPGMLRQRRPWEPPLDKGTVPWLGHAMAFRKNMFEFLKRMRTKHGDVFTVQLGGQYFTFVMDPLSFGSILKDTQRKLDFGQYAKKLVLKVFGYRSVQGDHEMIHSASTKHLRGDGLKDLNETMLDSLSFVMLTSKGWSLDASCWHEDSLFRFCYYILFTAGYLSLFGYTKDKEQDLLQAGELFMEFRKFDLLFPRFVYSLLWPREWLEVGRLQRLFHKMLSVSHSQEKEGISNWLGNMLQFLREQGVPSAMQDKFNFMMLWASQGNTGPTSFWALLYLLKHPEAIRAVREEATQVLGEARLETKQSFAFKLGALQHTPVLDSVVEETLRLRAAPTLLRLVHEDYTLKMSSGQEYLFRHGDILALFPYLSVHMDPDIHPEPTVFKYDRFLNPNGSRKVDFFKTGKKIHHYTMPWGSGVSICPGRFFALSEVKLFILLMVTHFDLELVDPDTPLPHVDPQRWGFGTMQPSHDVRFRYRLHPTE

Some entries whose results are on file:
>>> df
                                   compound  experimental_value
0  CC(C)CCC[C@@H](C)[C@H]1CC[C@H]2[C@@H]3[C@H](O)C[C@@H]4C[C@H](O)CC[C@]4(C)[C@H]3C[C@H](O)[C@]12C              7.6 µM
1  N[C@@H]1C[C@H]1c1ccccc1.N[C@H]1C[C@@H]1c1ccccc1 (racemic)              7.8 µM
2  CC[C@@H]([C@H](C)O)n1ncn(-c2ccc(N3CCN(c4ccc(OC[C@@H]5CO[C@@](Cn6cncn6)(c6ccc(F)cc6F)C5)cc4)CC3)cc2)c1=O              3.8 µM
3  Clc1ccc(COC(Cn2ccnc2)c2ccc(Cl)cc2Cl)c(Cl)c1 (stereo not given)              1.5 µM

Consider the record given below.
Entry under review: CC(=O)N1CCN(c2ccc(OC[C@H]3CO[C@](Cn4ccnc4)(c4ccc(Cl)cc4Cl)O3)cc2)CC1 . Reported IC50?
2.2 µM

These entries and their values trace back to ChEMBL document CHEMBL4418298.
